- method description: in vivo
- run parameters: iv
reported metric: LD50

## Input For the molecule CO/N=C(\C(=O)N[C@@H]1C(=O)N2C(C(=O)O)=C(CSc3nc(=O)c(O)nn3C)CS[C@H]12)c1csc(NC(=O)CCl)n1 , report LD50.
## Output 250 to 500 mg/kg

---

- method description: in vivo
- run parameters: po
reported metric: LD50

## Input For the molecule CO/N=C(\C(=O)N[C@@H]1C(=O)N2C(C(=O)O)=C(CSc3nc(=O)c(O)nn3C)CS[C@H]12)c1csc(NC(=O)CCl)n1 [Product B] , report LD50.
## Output > 5000 mg/kg
